These data points were gathered from ChEMBL document CHEMBL1777723.

Target: Tyrosine-protein phosphatase non-receptor type 1 (Homo sapiens, UniProt P18031)
Sequence (P18031 whole entry): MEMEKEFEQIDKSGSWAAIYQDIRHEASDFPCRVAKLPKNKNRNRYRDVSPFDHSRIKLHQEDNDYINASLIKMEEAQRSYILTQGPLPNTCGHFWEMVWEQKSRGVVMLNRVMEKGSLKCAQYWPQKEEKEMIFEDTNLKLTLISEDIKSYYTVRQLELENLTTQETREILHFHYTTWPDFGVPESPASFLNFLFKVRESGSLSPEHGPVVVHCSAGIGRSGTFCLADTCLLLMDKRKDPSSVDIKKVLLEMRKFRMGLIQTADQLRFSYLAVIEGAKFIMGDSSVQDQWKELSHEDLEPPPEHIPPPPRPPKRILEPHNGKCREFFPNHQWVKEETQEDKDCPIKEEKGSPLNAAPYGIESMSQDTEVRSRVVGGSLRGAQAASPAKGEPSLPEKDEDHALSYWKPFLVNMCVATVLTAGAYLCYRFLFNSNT
Assay: Inhibition of recombinant human PTP1B using p-nitrophenyl phosphate as substrate after 30 mins
TEST_READOUT: pIC50
Answers are plain numbers, as −log10 of the molar value.

Below, each entry is followed by its recorded pIC50 result.
| MOLECULE | pIC50 |
| --- | --- |
| COc1cc(O)c(Br)cc1/C=C/C(=O)c1ccc(OCc2ccccc2)cc1 | 5.54 |
| COc1cc(O)c(Br)cc1/C=C/C(=O)c1ccc(OCCCC(=O)O)cc1 | 4.52 |
| COc1cccc(C(=O)/C=C/c2cc(Br)c(O)cc2OC)c1 | 4.95 |
| CCOC(=O)COc1ccc(C(=O)/C=C/c2cc(Br)c(O)cc2OC)cc1 | 4.82 |

For each of the molecules below, state pIC50.
1. C=CCc1cc(C(=O)/C=C/c2cc(Br)c(O)cc2OC)ccc1O
2. COc1cc(O)c(Br)cc1/C=C/C(=O)c1cccc(N2CCCCC2)c1

# output
5.15
5.31

Please state, for each entry, its recorded pIC50.
1. COc1cc(O)c(Br)cc1/C=C/C(=O)c1ccc(OC(=O)c2ccc(C(C)(C)C)cc2)cc1
2. COc1cc(O)c(Br)cc1/C=C/C(=O)c1cccc(N)c1
3. COc1cc(O)c(Br)cc1/C=C/C(=O)c1ccccc1N1CCCCC1
4. COc1cc(O)c(Br)cc1/C=C/C(=O)c1ccc(OCC=C(C)C)cc1
5. C=CCc1cc(C(=O)/C=C/c2cc(Br)c(O)cc2OC)ccc1OC
6. C=C(C)C(C)c1cc(C(=O)/C=C/c2cc(Br)c(OC3CCCCO3)cc2OC)ccc1O (stereo unspecified)
7. C=CCN(CC=C)c1ccc(C(=O)/C=C/c2cc(Br)c(O)cc2OC)cc1

# output
[5.62, 5.17, 5.17, 5.46, 5.28, 4.99, 5.47]

Dear colleague, could you please provide pIC50 for the molecules listed below?
1. C=C(C)C(C)c1cc(C(=O)/C=C/c2cc(Br)c(O)cc2OC)ccc1OCC=C(C)C (stereo unspecified)
2. COc1cc(O)c(Br)cc1/C=C/C(=O)c1ccc(OC(=O)c2ccccc2)cc1
3. C=CCN(CC=C)c1ccccc1C(=O)/C=C/c1cc(Br)c(O)cc1OC
4. CCOC(=O)CCCOc1ccc(C(=O)/C=C/c2cc(Br)c(O)cc2OC)cc1
5. COc1cc(O)c(Br)cc1/C=C/C(=O)c1ccccc1N(C)C

# output
[5.15, 5.31, 5.46, 4.97, 4.86]

Record pIC50 per entry; entries follow.
1. COc1cc(O)c(Br)cc1/C=C/C(=O)c1ccc(OC)c(CC=C(C)C)c1
2. COc1cc(O)c(Br)cc1/C=C/C(=O)c1ccc(N2CCCCC2)cc1

# output
1: 5.54; 2: 5.59
